Values were extracted from patent US8715635B2.

Kindly state ΔH of binding for each of the entries shown.
# Assay Details: Isothermal titration calorimetry (ITC) of CB[6] host with dicationic guest molecules
# Type: binding
# Experimental Conditions: in water at 30° C.
Note: unit kcal/mol is implicit; provide only the numeric part.

Q) Data request, read-out ΔH of binding, for "Cl.Cl.NCC#CC#CCN"
A) -0.696

Q) Next record, please: "Cl.Cl.NCC#CC#CCN1CCCC1"
A) -4.452

Q) Next record, please: "C(C#CCN1CCCC1)#CCN1CCCC1.Cl.Cl"
A) -3.718

Q) Next record, please: "NCCCCCCN"
A) -13.760

----------
Kindly state ΔS of binding for each of the entries shown.
# Assay Details: Isothermal titration calorimetry (ITC) of CB[6] host with dicationic guest molecules
# Format: binding
# Experimental Conditions: in water at 30° C.

Q) Data request, read-out ΔS of binding, for "Cl.Cl.NCC#CC#CCN"
A) 23.51

Q) Next record, please: "Cl.Cl.NCC#CC#CCN1CCCC1"
A) 9.29 cal/(mol·K)

Q) Next record, please: "C(C#CCN1CCCC1)#CCN1CCCC1.Cl.Cl"
A) 12.8 cal/(mol·K)

Q) Next record, please: "NCCCCCCN"
A) -20.4 cal/(mol·K)
